test system: HS 578T breast; test: NCI-60 one-dose screen, 48 h; conditions: 10 µM unless noted
The panel holds about 83,000 compounds, 20% with a hit somewhere; the sample as a whole holds those more often. The source made the active and inactive calls. The calls were made as follows: active = growth percent below 10; inactive = the rest.
// allowed return values: Yes (active), No (inactive)

Before answering, review these 4 worked examples.
compound	classification
C=C(C)[C@@H]1CC[C@]2(C)[C@H](CC=C3[C@@H]4[C@H](C)[C@@H](C)CC[C@]4(CO)CC[C@]32C)[C@@]1(C)CCCN	No
CCN(C(=O)N1CCN(c2cc3c(cc2F)c(=O)c(C(=O)O)cn3C2CC2)CC1)c1nc(-c2ccc(Cl)cc2)cs1	No
CCCCOC(=O)OCc1cc(=O)c(O)co1	No
Cc1cnc(C(=O)NNc2nc3sc4c(c3c(=O)n2C)C(C)CCC4)cn1 (stereo not given)	No

Please find the next compound below.
Task item: Which result was noted for this compound in the test: "O=C(Cn1c(-c2ccc([N+](=O)[O-])cc2)nc2ccccc21)NNC(=O)c1cccnc1"
Reply: No
